Source of measurements: the EternaBench riboswitch data

What apparent Kd was measured for each of the following?
system: MS2 coat protein; assay: apparent Kd, MS2 coat protein; higher = weaker binding; RNA-MaP array; FMN 200 µM where present; conditions: designed as: ON switch for flavin mononucleotide; no ligand

Value of measured apparent Kd for the entry GGACAUUUACAGAAGGGCAAGUUGGAUCGCGGAUAACGCGAUCCGACUUGCAGGAUAUGUUGAACAUGAGGAUCACCCAUGUCC : 12 nM

Value of measured apparent Kd for the entry UCCACUACUGAGAAGGGAUACAUAUAAUUCUAGUCAGGAUAUCGAUACAGUGCAGCAUGAGGACAUGAGGAUCACCCAUGUAUU : 18.9 nM

Value of measured apparent Kd for the entry ACGCAGCUAGGUGAGGAUAUCGGUGGUAAAACAUGAGGAUCACCCAUGUCCGAAGCUCGGACUUCCGAGAAGGCGCCCGGCUGCA : 122 nM

Value of measured apparent Kd for the entry ACGGUGGUCACAGGAUAUCCAGCCCGCGUGCCUGGAGAAGGGUGACUCAGAACCACAUGAGGAUCACCCAUGUGCCUUGCCGUA : 140 nM

Value of measured apparent Kd for the entry CGGUCGAUAUCAGGAUAUCGUUUAAUUACAUGAGGAUCACCCAUGUUGACAUGGAAUAUAACAUGCGAGAAGGGAUUACGAUCG : 13.9 nM

Value of measured apparent Kd for the entry AGUGUCAUCGAGAAGGCCUCAACAUGAGGAUCACCCAUGUUGCAAAAUGGGAGGAUAUCGCGCGAAAAGCUACGUUUCGUAGCA : 28.9 nM

Value of measured apparent Kd for the entry UGGUACUAGGGAGGAUAUGGGAAGAUACAUGAGGAUCACCCAUGUUUAAGAAUGCCGAGAGGCAACUAGAAGGCCCUAGUAGCU : 539 nM

Value of measured apparent Kd for the entry AAUGGGCAGCAGAAGGCAUGUCAUAAGACAUGAGGAUCACCCAUGUAGUUAAGGCGAAAGCCGCAUGAGGAUAUGCUGCCCUAA : 66 nM

Value of measured apparent Kd for the entry UUGGCGACGUAGAAGGGUGACAUGAGGAUCACCCAUGUGCCGAUAUGUCUCGAGAUAUGUCGGCCACAGGAUAUACGUGCCAUC : 61.7 nM

Value of measured apparent Kd for the entry AUACCUUAUGAGAAGGCGGUCAUGAAACAUGAUCGAGGAUAUCAUGUAAACAUGAGGAUCACCCAUGUAUGGGUAUUAUGGUAG : 61.8 nM

Value of measured apparent Kd for the entry AGAAAACAUGAGGAUCACCCAUGUAGAAAUAUGGGAGGAUAUACAAAGACGAAAGUCAAGGUAGAAGGCCUAAAGA : 86.7 nM

Value of measured apparent Kd for the entry CUGGUUCUCGUAGGAUAUGUAGGAUAUGCCUACAUGAGGAUCACCCAUGUUCGCAUGGCAGAAGGACAGAAGGACGAUCACCAC : 323 nM

Value of measured apparent Kd for the entry GUGAACAUGAGGAUCACCCAUGUAGCUCACUGCCAGUGGCUACAGGAUAUAGCACUCCGAAGGUGCUAGAAGGGUGGCCUAGAA : 92.8 nM

Value of measured apparent Kd for the entry AAUUUGUGAAAAUUACAUGAGGAUCACCCAUGUUAGGGAAUGCAGGAUAUGUGGUUUAUUAUUUUACAGAAGGGCAAUAAUUUU : 95.9 nM

Value of measured apparent Kd for the entry UCGUACAUUCGAGGAUAUCGGUGAUUAAUAAUACGAGAAGGCGAUUUUAGGCAUAAAGCCUUAGACAUGAGGAUCACCCAUGUA : 89.7 nM

Value of measured apparent Kd for the entry GGGCGACAUGAGGAUCACCCAUGUAACCUAAACGAAGGAUAUGGGCCUGAACGUCCAGGACCAGAAGGUCGGAAAU : 23.6 nM
